These measurements were taken from the Human Domainome abundance scans (Beltran et al. 2025).

B1: Chromodomain-helicase-DNA-binding protein 4, residues 365 to 417; numbered along this chain, Q14839 (parent)
chain: YETDHQDYCEVCQQGGEIILCDTCPRAYHMVCLDPDMEKAPEGKWSCPHCEKE

Variants of: B1
Test: abundance fitness (aPCA) (normalised: wild type 0, dead -1); higher = more abundant; growth selection in yeast, the domain comes from the species named
Conditions: Homo sapiens
Answer each item with its documented abundance fitness.
Kindly provide the number alone.

abundance fitness recorded for this variant, `Y1K` , is 0.593

abundance fitness recorded for this variant, `T23V` , is -0.231

abundance fitness recorded for this variant, `K39C` , is -0.347

abundance fitness recorded for this variant, `P48Y` , is -0.101

abundance fitness recorded for this variant, `E10A` , is -0.155

abundance fitness recorded for this variant, `A27G` , is -0.162

abundance fitness recorded for this variant, `M37N` , is 0.141

abundance fitness recorded for this variant, `Q13E` , is -0.036
